Values from patent US5712300A

Target: Gelatinase
Assay: MMP inhibition by particle concentration fluorescence technique (gelatinase)
Conditions: pH 7.5; 15 min enzyme preincubation; substrate 1-3 h at room temperature; read-out: MMP Inhibition Constants, Gelatinase Ki
pKi: −log10 of the molar value.
MEASUREMENT_KIND: pKi

Previously resolved entries follow.
# COMPOUND, pKi
measured = [
    ("CC(C)CC1(C(C)C(=O)NO)CCN(CCc2ccccc2)C1=O (stereo not drawn)", 4.93),
    ("CNC(=O)[C@H](CC(C)C)N1CC[C@](CC(=O)NO)(CC(C)C)C1=O", 7.30),
    ("CC(C)C[C@@]1(CC(=O)NO)CCN([C@H](C(=O)Nc2ccccn2)C2CCCCC2)C1=O", 7.64),
]

a = O=C(NCC[C@@H](C(=O)NO)[C@]1(CCCO)CCN(CCc2ccccc2)C1=O)c1cccc(F)c1
b = CC(C)C[C@@]1([C@@H](CCN2C(=O)c3ccccc3C2=O)C(=O)NO)CCN(CCCc2ccccc2)C1=O (relative stereo)
c = CC(C)C[C@@]1([C@@H](CCNS(=O)(=O)c2ccc(F)cc2)C(=O)NO)CCN(CCc2ccccc2)C1=O (relative stereo) [Example 81]
Sort entries by pKi from minimum to maximum value. # the answer lists labels in the order requested c, b, a
(c: 5.85, b: 7.44, a: 9.01)

---

These records show pKi for Stromelysin (Homo sapiens, UniProt P08254).
pKi: −log10 of the molar value.
MEASUREMENT_KIND: pKi

Previously resolved entries follow.
# MOLECULE, READOUT_NUMBER
rows = [
    ("CC(C)C[C@@]1([C@@H](NS(=O)(=O)c2ccc(F)cc2)C(=O)NO)CCN(CCc2ccccc2)C1=O (relative stereo)", 6.51),
    ("CC(C)C[C@@]1([C@@H](CCN2C(=O)c3cccc(F)c3C2=O)C(=O)NO)CCN(CCc2ccccc2)C1=O (relative stereo)", 6.92),
    ("CC(C)C[C@@]1([C@@H](CCN2Cc3ccc(F)cc3C2=O)C(=O)NO)CCN(CCc2ccccc2)C1=O", 7.04),
    ("CC(C)CC1(CC(=O)NO)C(=O)N(CCc2ccccc2)C(=O)N1C (stereo not shown)", 5.62),
]

a = CC(C)CC1(CC(=O)NO)CC(=O)N(CCc2ccccc2)C1=O (stereo not shown)
b = CC(C)C[C@@]1([C@@H](CCN2C(=O)c3ccc([N+](=O)[O-])cc3C2=O)C(=O)NO)CCN(CCc2ccccc2)C1=O (relative stereo)
c = CC(C)C[C@@]1(CC(=O)NO)CCN([C@@H](Cc2ccccc2)C(=O)Nc2ccccc2)C1=O
Sort these molecules on pKi so the largest reading comes first. # the answer lists labels in the order requested c, b, a

---

Biological target: Collagenase (Homo sapiens, UniProt P03956)
Sequence (P03956 100-469): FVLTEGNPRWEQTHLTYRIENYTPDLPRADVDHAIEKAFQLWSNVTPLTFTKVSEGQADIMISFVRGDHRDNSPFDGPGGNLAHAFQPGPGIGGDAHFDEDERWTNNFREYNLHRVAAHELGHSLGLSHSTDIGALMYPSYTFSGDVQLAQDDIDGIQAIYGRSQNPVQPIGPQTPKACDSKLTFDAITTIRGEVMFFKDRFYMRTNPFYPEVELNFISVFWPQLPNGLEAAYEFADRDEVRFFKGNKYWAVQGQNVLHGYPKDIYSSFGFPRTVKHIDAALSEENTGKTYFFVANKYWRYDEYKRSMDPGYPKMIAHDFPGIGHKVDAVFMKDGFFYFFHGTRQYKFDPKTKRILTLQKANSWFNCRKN
MEASUREMENT_KIND: Ki (nM)

Previously resolved entries follow.
# COMPOUND, Ki / nM
rows = [
    ("O=C(NCC[C@@H](C(=O)NO)[C@]1(CCO)CCN(CCc2ccccc2)C1=O)c1ccc(F)c(F)c1 (relative stereo)", 25),
    ("CNC(=O)[C@H](Cc1ccccc1)N1CC[C@@](CC(C)C)([C@H](CCNC(=O)c2ccccc2)C(=O)NO)C1=O", 0.69),
    ("CC(C)C[C@@]1([C@@H](CCN2C(=O)c3ccccc3C2=O)C(=O)NO)CCN(CCc2ccccc2)C1=O", 4370),
]

P = CC(C)C[C@@]1([C@@H](CCN2C(=O)c3ccc(F)cc3C2=O)C(=O)NO)CCN(CCc2ccccc2)C1=O (relative stereo) [Example 14]
Q = CC(C)C[C@@]1(CC(=O)NO)CCN([C@@H](Cc2ccccc2)C(=O)N2C[C@@H](C)N[C@@H](C)C2)C1=O (relative stereo)
Short answer wanted: higher Ki, P or Q ? Refer to your chosen entry by its label in the reply. Q

---

Target: Gelatinase
Experiment: MMP inhibition by particle concentration fluorescence technique (gelatinase)
Conditions: pH 7.5; 15 min enzyme preincubation; substrate 1-3 h at room temperature; read-out: MMP Inhibition Constants, Gelatinase Ki
pKi: −log10 of the molar value.
MEASUREMENT_KIND: pKi

Previously resolved entries follow.
# COMPOUND, pKi
data = [
    ("CC(C)C[C@@]1([C@@H](CCN2C(=O)c3ccccc3S2(=O)=O)C(=O)NO)CCN(CCc2ccccc2)C1=O (relative stereo) [Example 69]", 6.30),
    ("CC(C)C[C@@]1([C@@H](CCN2C(=O)c3ccccc3C2=O)C(=O)NO)CCN(CCc2ccccc2)C1=O (relative stereo) [Example 4]", 6.69),
    ("CNC(=O)CN1CC[C@@](CC(C)C)([C@@H](CCN2C(=O)c3ccccc3C2=O)C(=O)NO)C1=O (relative stereo) [Example 26]", 6.00),
    ("CC(C)C[C@@]1(CC(=O)NO)CCN([C@@H](Cc2ccccc2)C(=O)NCCc2ccccc2)C1=O [Example 31]", 7.71),
    ("CC(C)C[C@@]1(CC(=O)NO)CCN([C@@H](Cc2ccccc2)C(=O)Nc2ccncc2)C1=O [Example 41]", 8.64),
]

I = CC(C)CC1(C(CCN2C(=O)c3cc(F)c(F)cc3C2=O)C(=O)NO)CCN(CCc2ccccc2)C1=O (centres unmarked) [Example 64]
II = CNC(=O)[C@H](Cc1ccccc1)N1CC[C@](CC(=O)NO)(CC(C)C)C1=O [Example 30]
III = CNC(=O)[C@H](CCc1ccccc1)N1CC[C@](CC(=O)NO)(CC(C)C)C1=O [Example 47]
Sort these compounds on pKi so the largest reading comes first. # the answer lists labels in the order requested II, I, III
(II: 7.62, I: 7.31, III: 7.07)

---

Target: Stromelysin (Homo sapiens, UniProt P08254)
Sequence (P08254 100-477): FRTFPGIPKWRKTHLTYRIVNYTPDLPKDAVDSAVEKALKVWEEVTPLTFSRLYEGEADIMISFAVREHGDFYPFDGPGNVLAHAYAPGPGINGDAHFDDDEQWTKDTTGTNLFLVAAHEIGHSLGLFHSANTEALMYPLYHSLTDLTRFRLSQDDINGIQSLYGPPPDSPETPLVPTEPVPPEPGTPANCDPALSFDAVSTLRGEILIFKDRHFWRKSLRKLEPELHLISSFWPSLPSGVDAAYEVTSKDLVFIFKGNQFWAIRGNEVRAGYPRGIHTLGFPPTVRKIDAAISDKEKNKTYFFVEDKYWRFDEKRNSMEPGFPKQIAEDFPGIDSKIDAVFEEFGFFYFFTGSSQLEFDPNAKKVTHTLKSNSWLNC
MEASUREMENT_KIND: Ki (nM)

Previously resolved entries follow.
# COMPOUND, MEASUREMENT_KIND, READOUT_NUMBER
records = [
    ("CC(C)C[C@@]1([C@@H](CCN2C(=O)c3ccccc3C2=O)C(=O)NO)CCN(CCc2ccc(F)cc2)C1=O (relative stereo)", "Ki", 350),
    ("CC(C)C[C@@]1([C@@H](CCN2C(=O)c3ccccc3C2=O)C(=O)NO)CCN(Cc2cccc(F)c2)C1=O (relative stereo)", "Ki", 649),
    ("COc1ccc(S(=O)(=O)NC[C@H](C(=O)NO)[C@]2(CC(C)C)CCN(CCc3ccccc3)C2=O)cc1 (relative stereo)", "Ki", 1770),
    ("CNC(=O)CN1CC[C@@](CC(C)C)([C@@H](CCN2C(=O)c3c(F)c(F)c(F)c(F)c3C2=O)C(=O)NO)C1=O (relative stereo)", "Ki", 11000),
    ("CC(C)CC1(C(C)C(=O)NO)CCN(CCc2ccccc2)C1=O (stereo not drawn)", "Ki", 10900),
    ("CC(C)CC1(C(CSc2cccs2)C(=O)NO)CCN(CCc2ccccc2)C1=O (stereo not drawn)", "Ki", 2770),
    ("CC(C)C[C@@]1([C@H](CCN2C(=O)c3ccccc3C2=O)C(=O)NO)CCN(CCc2ccc(F)cc2)C1=O (relative stereo)", "Ki", 640),
]

1 = CC(C)C[C@@]1([C@@H](CCSc2cccs2)C(=O)NO)CCN(CCc2ccccc2)C1=O (relative stereo)
2 = CC(C)C[C@@]1(CC(=O)NO)CCN([C@@H](Cc2ccccc2)C(=O)Nc2ccccn2)C1=O
Short answer wanted: higher Ki, 1 or 2 ? Refer to your chosen entry by its label in the reply. 1

---

Biological target: Gelatinase
Test: MMP inhibition by particle concentration fluorescence technique (gelatinase)
Details: pH 7.5; 15 min enzyme preincubation; substrate 1-3 h at room temperature; read-out: MMP Inhibition Constants, Gelatinase Ki
Procedure: Inhibitory activity is evaluated in one or more of the MMP enzymes (stromelysin, gelatinase, and collagenase) in vitro using a particle concentration fluorescence techniques. An inhibitor binds to MMP enzymes prevents the degradation of a substrate of stromelysin, gelatinase, or collagenase. […] Without an inhibitor present, the substrate is degraded by MMP enzymes and the fluorescein group is removed, therefore, no fluorescent signal can be detected. […]
MEASUREMENT_KIND: Ki (nM)

Previously resolved entries follow.
# MOLECULE, TEST_TARGET, Ki [nM]
data = [
    ("CC(C)C[C@@]1([C@H](NS(=O)(=O)c2ccc(F)cc2)C(=O)NO)CCN(CCc2ccccc2)C1=O (relative stereo)", "Gelatinase", 1100),
    ("CC(C)C[C@@]1([C@@H](CCNS(=O)(=O)c2ccc(F)cc2)C(=O)NO)CCN(CCc2ccccc2)C1=O [Example 84]", "Gelatinase", 3000),
    ("CNC(=O)[C@H](Cc1ccccc1)N1CC[C@](CC(=O)NO)(CC2CCCC2)C1=O", "Gelatinase", 1.1),
    ("CNC(=O)C(Cc1ccccc1)N1CCC(CC(=O)NO)(CC(C)C)C1=O (stereo not drawn)", "Gelatinase", 49),
]

A = CC(C)C[C@@]1([C@@H](CCNC(=O)c2cccc([N+](=O)[O-])c2)C(=O)NO)CCN(CCc2ccccc2)C1=O (relative stereo)
B = CC(C)C[C@@]1([C@@H](CCN2Cc3cc(F)c(F)cc3C2=O)C(=O)NO)CCN(CCc2ccccc2)C1=O (relative stereo) [Example 85]
Short answer wanted: higher Ki, A or B ? Refer to your chosen entry by its label in the reply. A
(A: 3300 nM, B: 31 nM)

A = CC(C)C[C@@]1([C@@H](CCNC(=O)c2cccc(F)c2)C(=O)NO)CCN(CCc2ccc(F)cc2)C1=O (relative stereo)
B = O=C(NCC[C@@H](C(=O)NO)[C@]1(CCO)CCN(CCc2ccccc2)C1=O)c1ccc(F)c(F)c1 (relative stereo)
C = CC(C)C[C@@]1([C@@H](CCN2C(=O)c3c(F)c(F)c(F)c(F)c3C2=O)C(=O)NO)CCN(CCc2ccccc2)C1=O (relative stereo)
D = CC(C)C[C@@]1([C@@H](CCCSc2cccs2)C(=O)NO)CCN(CCc2ccccc2)C1=O (relative stereo)
E = CC(C)C[C@@]1(CC(=O)NO)CCN([C@@H](Cc2ccccc2)C(=O)NCCN2CCOCC2)C1=O
Sort these molecules on Ki so the largest reading comes first. # the answer lists labels in the order requested D, C, A, E, B

a = CC(C)C[C@@]1(CC(=O)NO)CCN(CCc2ccccc2)C1=O
b = O=C(NCC[C@@H](C(=O)NO)[C@]1(CCCO)CCN(CCc2ccccc2)C1=O)c1ccc(F)c(F)c1 (relative stereo)
Short answer wanted: higher Ki, a or b ? Refer to your chosen entry by its label in the reply. a
(a: 3290 nM, b: 1.2 nM)
